Where do these numbers come from? They come from ChEMBL document CHEMBL4828725.

- METHOD NOTES: Inhibition of beta-glucosidase (unknown origin)
- Parameters: species or system Homo sapiens
OBSERVED PROPERTY: pIC50
Schema: pIC50 number; meaning minus log10 of the concentration expressed in molar units.

input: For OC[C@H]1NC[C@H](O)[C@@H](O)[C@@H]1O [DUVOGLUSTAT] , what is its reported pIC50?
output: 6.57

---

- TARGET UNDER TEST: Alpha-galactosidase (Coffea arabica)
- Sequence (Q42656 whole entry): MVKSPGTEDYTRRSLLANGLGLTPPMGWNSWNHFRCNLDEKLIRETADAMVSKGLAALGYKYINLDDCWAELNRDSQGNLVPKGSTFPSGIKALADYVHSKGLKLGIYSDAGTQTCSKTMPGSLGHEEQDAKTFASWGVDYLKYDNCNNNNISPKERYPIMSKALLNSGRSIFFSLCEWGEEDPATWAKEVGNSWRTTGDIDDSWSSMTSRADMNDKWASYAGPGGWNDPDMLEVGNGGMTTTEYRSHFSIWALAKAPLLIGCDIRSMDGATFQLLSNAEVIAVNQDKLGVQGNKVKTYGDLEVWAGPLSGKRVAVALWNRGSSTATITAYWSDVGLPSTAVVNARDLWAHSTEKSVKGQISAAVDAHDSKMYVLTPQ
- METHOD NOTES: Inhibition of coffee beans alpha-galactosidase using p-nitrophenyl glycoside as substrate assessed as release of p-nitrophenol measured by spectrometric assay
- CONDITION DETAILS: read-out: IC50
Field 'label' (enum: Fulfilled / Not fulfilled). Set to Fulfilled when IC50 is strictly under 60 µM; else Not fulfilled.

input: Lab note: IC50 threshold 60 µM. Does this compound come in strictly under it? CCCCCCCC[C@]1(CO)NC[C@H](O)[C@@H](O)[C@@H]1O.Cl
output: Not fulfilled

input: Identify whether the compound CCCCCCCCC[C@]1(CO)NC[C@H](O)[C@@H](O)[C@@H]1O.Cl records IC50 below 60 µM.
output: Fulfilled

input: Take the compound CCCC[C@]1(CO)NC[C@H](O)[C@@H](O)[C@@H]1O.Cl and say whether its IC50 is less than 60 µM.
output: Fulfilled

input: Record CCCCCCCCCCCC[C@]1(CO)NC[C@H](O)[C@@H](O)[C@@H]1O.Cl : is its IC50 strictly below 60 µM?
output: Fulfilled

input: Criterion: IC50 strictly below 60 µM. Is it met by CCCCCCCCCCC[C@]1(CO)NC[C@H](O)[C@@H](O)[C@@H]1O.Cl ?
output: Fulfilled
